assayComment: Exposure during ipGTT in ob/ob mice
Type: in vivo
testParameters: sc
Where a SMILES comes first, the peptide text is derived from it. [ ]: non-standard residue; d: D form. The star is where a group is joined. ξ: configuration not given here. Ala(6-(2-MePh)pyridin-3-yl) = Cc1ccccc1-c1ccc(C[C@H](N)C(=O)O)cn1; Bip(2'-Et-4'-OMe) = CCc1cc(OC)ccc1-c1ccc(C[C@H](N)C(=O)O)cc1; Lactoyl(3-(imidazol-4-yl)) = O=C([C@@H](O)Cc1c[nH]cn1)*; ξαMePhe(2-F) = CC(N)(Cc1ccccc1F)C(=O)O; ξαMeP = CC1(C(=O)O)CCCN1

compound	Exposure/dose during ipGTT in ob/ob mice / nM * h/nmol/kg
CCc1cc(OC)ccc1-c1ccc(C[C@H](NC(=O)[C@H](CC(=O)O)NC(=O)[C@H](Cc2c[nH]cn2)NC(=O)[C@@H](NC(=O)C(C)(Cc2ccccc2F)NC(=O)[C@@H](NC(=O)CNC(=O)[C@H](CCC(=O)O)NC(=O)C2(C)CCCN2C(=O)[C@@H](O)Cc2c[nH]cn2)[C@@H](C)O)[C@@H](C)O)C(=O)N[C@@H](Cc2ccc(-c3ccccc3C)nc2)C(N)=O)cc1 (stereo partly shown) [SEQ ID NO: 151] ({Lactoyl(3-(imidazol-4-yl))}-[ξαMeP]EGT[ξαMePhe(2-F)]THD[Bip(2'-Et-4'-OMe)][Ala(6-(2-MePh)pyridin-3-yl)]-NH2)	16

* * *

assayComment: Dog pharmacokinetic study (iv and sc, solution vehicles)
Assay type: in vivo
testParameters: male, beagle, plasma, 67 ug/kg; dog, intravenous 67 μg/kg, propylene glycol:phosphate buffer (50:50); read-out: CLp
Where a SMILES comes first, the peptide text is derived from it. [ ]: non-standard residue; d: D form. Ala(6-(2-MePh)pyridin-3-yl) = Cc1ccccc1-c1ccc(C[C@H](N)C(=O)O)cn1; Bip(2'-Et-4'-OMe) = CCc1cc(OC)ccc1-c1ccc(C[C@H](N)C(=O)O)cc1; αMePhe(2-F) = C[C@](N)(Cc1ccccc1F)C(=O)O; Aib = CC(C)(N)C(=O)O

molecule	measureUnit	clearance
CCc1cc(OC)ccc1-c1ccc(C[C@H](NC(=O)[C@H](CC(=O)O)NC(=O)[C@H](CO)NC(=O)[C@@H](NC(=O)[C@](C)(Cc2ccccc2F)NC(=O)[C@@H](NC(=O)CNC(=O)[C@H](CCC(=O)O)NC(=O)C(C)(C)NC(=O)[C@@H](N)Cc2c[nH]cn2)[C@@H](C)O)[C@@H](C)O)C(=O)N[C@@H](Cc2ccc(-c3ccccc3C)nc2)C(N)=O)cc1 [SEQ ID NO: 9] (H-H[Aib]EGT[αMePhe(2-F)]TSD[Bip(2'-Et-4'-OMe)][Ala(6-(2-MePh)pyridin-3-yl)]-NH2)	mL/min/kg	0.6

* * *

assayComment: Dog pharmacokinetic study (iv and sc, solution vehicles)
Assay type: in vivo
testParameters: beagle, plasma, sc, 67 ug/kg; dog, subcutaneous 67 μg/kg, Tables 6A-6C (vehicle 0.2 M Tris, pH 8.0)
Where a SMILES comes first, the peptide text is derived from it. [ ]: non-standard residue; d: D form. The star is where a group is joined. ξ: configuration not given here. Ala(6-(2-MePh)pyridin-3-yl) = Cc1ccccc1-c1ccc(C[C@H](N)C(=O)O)cn1; Phe(4-(2-Et-4-HO-Ph)) = CCc1cc(O)ccc1-c1ccc(C[C@H](N)C(=O)O)cc1; ξαMePhe(2-F) = CC(N)(Cc1ccccc1F)C(=O)O; ξαMeP = CC1(C(=O)O)CCCN1; Moc = COC(=O)*
measureName: Cmax (nM)

compound	measureUnit	observedResult
CCc1cc(O)ccc1-c1ccc(C[C@H](NC(=O)[C@H](CC(=O)O)NC(=O)[C@H](CO)NC(=O)[C@@H](NC(=O)C(C)(Cc2ccccc2F)NC(=O)[C@@H](NC(=O)CNC(=O)[C@H](CCC(=O)O)NC(=O)C2(C)CCCN2C(=O)[C@H](Cc2c[nH]cn2)NC(=O)OC)[C@@H](C)O)[C@@H](C)O)C(=O)N[C@@H](Cc2ccc(-c3ccccc3C)nc2)C(N)=O)cc1 (stereo partly shown) [SEQ ID NO: 158] (Moc-H[ξαMeP]EGT[ξαMePhe(2-F)]TSD[Phe(4-(2-Et-4-HO-Ph))][Ala(6-(2-MePh)pyridin-3-yl)]-NH2)	nM	279
